Target: COX-2 (Homo sapiens, UniProt P35354)
Sequence (P35354 18-604): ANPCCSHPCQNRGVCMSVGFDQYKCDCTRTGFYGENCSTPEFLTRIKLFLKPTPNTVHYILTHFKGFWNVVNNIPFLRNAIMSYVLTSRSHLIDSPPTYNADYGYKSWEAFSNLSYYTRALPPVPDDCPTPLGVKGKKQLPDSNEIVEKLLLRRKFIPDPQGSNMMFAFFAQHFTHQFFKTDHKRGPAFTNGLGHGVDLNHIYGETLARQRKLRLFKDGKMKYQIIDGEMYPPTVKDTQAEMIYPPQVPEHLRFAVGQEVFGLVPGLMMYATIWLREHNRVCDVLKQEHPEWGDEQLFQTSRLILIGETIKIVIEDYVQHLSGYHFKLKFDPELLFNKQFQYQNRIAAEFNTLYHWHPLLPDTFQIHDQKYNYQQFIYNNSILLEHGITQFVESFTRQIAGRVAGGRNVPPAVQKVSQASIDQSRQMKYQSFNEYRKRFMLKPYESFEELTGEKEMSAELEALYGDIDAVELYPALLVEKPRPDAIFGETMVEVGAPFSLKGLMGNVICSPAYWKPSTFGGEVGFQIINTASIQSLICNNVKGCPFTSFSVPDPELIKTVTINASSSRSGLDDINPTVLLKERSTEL
Test: Whole cell assay for COX-2 using CHO transfected cell line (CHO [hCOX-2]), PGE2
Type: cell-based
Design: expressed in transfected cells; host or cells: CHO (Chinese hamster ovary), stably transfected with pCDNAIII vector; CHO [hCOX-2]
Details: CHO [hCOX-2] cells, 10 μM AA
Description: Chinese hamster ovary (CHO) cell lines which have been stably transfected with an eukaryotic expression vector pCDNAIII containing either the human COX-1 or COX-2 cDNA's are used for the assay. These cell lines are referred to as CHO [hCOX-1] and CHO [hCOX-2], respectively. […] Cyclooxygenase activity in the absence of test compounds is determined as the difference in PGE2 levels of cells challenged with arachidonic acid versus the PGE2 levels in cells mock-challenged with ethanol vehicle. […]
QUANTITY MEASURED: IC50 (µM)
Please reply with the bare figure in µM and do not write the unit itself.

Example results:
CS(=O)(=O)c1ccc(-c2cnn(CCCC(F)(F)F)c(=O)c2-c2ccc(F)cc2)cc1 [Example 29]: 0.18
CS(=O)(=O)c1ccc(-c2cnn(Cc3ccccc3)c(=O)c2-c2cccnc2)cc1 [Example 28]: 0.13

Fill in: IC50 of CS(=O)(=O)c1ccc(-c2cnn(Cc3ccc(F)cc3)c(=O)c2-c2ccc(F)cc2)cc1 [Example 16] is ___ 0.053

Value lookup for IC50; key = CC(c1ccccc1)n1ncc(-c2ccc(S(C)(=O)=O)cc2)c(-c2ccc(F)cc2)c1=O (stereo not shown) [Example 25] 0.49
